target-or-system: Sodium- and chloride-dependent glycine transporter 1 (Rattus norvegicus, UniProt P28572)
Sequence (P28572 whole entry): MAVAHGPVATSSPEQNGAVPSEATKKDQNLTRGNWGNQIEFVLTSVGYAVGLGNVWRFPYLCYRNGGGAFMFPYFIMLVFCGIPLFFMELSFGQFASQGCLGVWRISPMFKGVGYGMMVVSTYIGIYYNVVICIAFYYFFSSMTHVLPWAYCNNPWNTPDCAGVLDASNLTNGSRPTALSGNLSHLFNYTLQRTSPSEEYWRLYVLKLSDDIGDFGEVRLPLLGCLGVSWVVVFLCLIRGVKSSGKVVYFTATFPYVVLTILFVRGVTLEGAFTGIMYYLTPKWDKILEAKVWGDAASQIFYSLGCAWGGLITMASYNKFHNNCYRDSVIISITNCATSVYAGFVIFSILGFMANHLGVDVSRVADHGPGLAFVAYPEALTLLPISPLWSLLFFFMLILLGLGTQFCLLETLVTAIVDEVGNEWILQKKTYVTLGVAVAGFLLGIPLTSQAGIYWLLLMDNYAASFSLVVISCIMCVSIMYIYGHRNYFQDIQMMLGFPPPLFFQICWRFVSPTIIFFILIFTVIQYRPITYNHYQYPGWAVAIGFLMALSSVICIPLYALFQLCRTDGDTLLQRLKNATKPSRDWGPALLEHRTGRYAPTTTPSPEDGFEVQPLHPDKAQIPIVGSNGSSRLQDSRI
assay-remarks: In vitro glycine reuptake inhibitory activity against glycine transporter type-1 isoform C (GlyT-1c) transporter cells after incubation at 37 degrees for 30 min in presence of 50 nM [3H]glycine.
result-type: IC50

# annotated cases, reported IC50 shown
NC(C/C=C(\c1ccc2ccccc2c1)c1ccc(F)cc1F)C(=O)O (stereo unspecified)
> 10 µM
CC(C)c1ccc(/C(=C\CC(N)C(=O)O)c2ccccc2F)cc1 (stereo unspecified)
8.02 µM
CC(C)c1ccc(/C(=C\CC(N)C(=O)O)c2cccnc2)cc1 (stereo unspecified)
6.48 µM
CC(C)c1ccc(/C(=C\CC(N)C(=O)O)c2ccc(C#N)cc2)cc1 (stereo unspecified)
> 10 µM
N#Cc1ccc(/C(=C\CC(N)C(=O)O)c2ccc(F)cc2F)cc1 (stereo unspecified)
> 10 µM
CC(C)c1ccc(/C(=C\CC(N)C(=O)O)c2ccccc2)cc1 (stereo unspecified)
8.34 µM
CC(C)(C)c1ccc(/C(=C\CC(N)C(=O)O)c2ccc(F)cc2F)cc1 (stereo unspecified)
> 10 µM
CC(C)c1ccc(/C(=C\CC(N)C(=O)O)c2ccc(F)cc2F)cc1 (stereo unspecified)
> 10 µM
NC(C/C=C(\c1ccsc1)c1ccc(F)cc1F)C(=O)O (stereo unspecified)
> 10 µM
NC(C/C=C(\c1ccccc1)c1ccc(F)cc1F)C(=O)O (stereo unspecified)
9.5 µM

Which IC50 reading was recorded for the compound CC(C)c1ccc(/C(=C\CC(N)C(=O)O)c2ccc(C(C)(C)C)cc2)cc1 (stereo unspecified) ?
> 10 µM

* * *

A collection of molecules and their measured pIC50
target-or-system: Sodium- and chloride-dependent glycine transporter 2 (Rattus norvegicus, UniProt P58295)
Sequence (P58295 whole entry): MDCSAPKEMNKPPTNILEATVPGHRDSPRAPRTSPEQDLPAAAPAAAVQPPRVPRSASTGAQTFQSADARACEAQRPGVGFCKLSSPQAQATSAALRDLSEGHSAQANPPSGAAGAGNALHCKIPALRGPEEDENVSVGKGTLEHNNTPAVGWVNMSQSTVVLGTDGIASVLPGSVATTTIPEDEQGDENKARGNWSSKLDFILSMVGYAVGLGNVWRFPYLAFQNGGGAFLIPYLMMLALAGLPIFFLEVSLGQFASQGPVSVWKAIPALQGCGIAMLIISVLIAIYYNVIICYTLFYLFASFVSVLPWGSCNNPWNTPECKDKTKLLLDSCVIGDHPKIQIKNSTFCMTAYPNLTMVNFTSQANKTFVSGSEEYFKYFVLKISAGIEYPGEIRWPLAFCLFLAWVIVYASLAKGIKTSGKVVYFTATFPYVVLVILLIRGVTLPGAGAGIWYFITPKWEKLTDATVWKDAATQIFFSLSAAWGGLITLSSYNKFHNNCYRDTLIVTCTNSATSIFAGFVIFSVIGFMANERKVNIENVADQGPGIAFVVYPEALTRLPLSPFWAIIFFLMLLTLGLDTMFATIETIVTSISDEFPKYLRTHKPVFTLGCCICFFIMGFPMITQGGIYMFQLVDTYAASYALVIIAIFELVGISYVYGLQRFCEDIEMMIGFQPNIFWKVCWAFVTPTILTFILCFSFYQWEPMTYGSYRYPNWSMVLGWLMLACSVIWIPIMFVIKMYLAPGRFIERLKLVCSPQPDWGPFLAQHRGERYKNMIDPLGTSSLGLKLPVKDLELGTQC
assay-remarks: In vitro glycine reuptake inhibitory activity against glycine transporter type-2 (GlyT-2) transporter cells after incubation at 37 degrees for 30 min in presence of 50 nM [3H]glycine.
Quick note: pIC50 values are minus log10 of concentrations in mol/L.

CCc1ccc(/C(=C\CC(N)C(=O)O)c2ccc(F)cc2F)cc1 (configuration not stated)
6.34

Tell me the measured pIC50 of CC(C)c1ccc(C(=CCC(N)C(=O)O)c2ccc(C(C)C)cc2)cc1 (configuration not stated) , please.
5.69

Proceed to CC(C)c1ccc(/C(=C\CC(N)C(=O)O)c2ccc(F)cc2F)cc1 (configuration not stated)
6.48

And CC(C)c1cccc(/C(=C\CC(N)C(=O)O)c2ccc(F)cc2F)c1 (configuration not stated) ?
5.80

What do you get for CC(C)c1ccc(/C(=C\CC(N)C(=O)O)c2ccccc2F)cc1 (configuration not stated) ?
6.54

* * *

The compounds listed here are annotated with their IC50.
target-or-system: Sodium- and chloride-dependent glycine transporter 2 (Rattus norvegicus)
assay-remarks: In vitro glycine reuptake inhibitory activity against glycine transporter type-2 (GlyT-2) transporter cells after incubation at 37 degrees for 30 min in presence of 50 nM [3H]glycine.
The reply should be a number in nM, with the unit left off.

Reference set, count: 3
NC(C/C=C(/c1ccc(F)cc1F)c1ccccc1-c1ccccc1)C(=O)O (configuration not stated)
2750
COc1ccc(/C(=C\CC(N)C(=O)O)c2ccc(F)cc2F)cc1 (configuration not stated)
2030
CC(C)c1ccc(/C(=C\CC(N)C(=O)O)c2ccc(C#N)cc2)cc1 (configuration not stated)
2640

Any idea what IC50 was measured for CC(C)(C)c1ccc(/C(=C\CC(N)C(=O)O)c2ccc(F)cc2F)cc1 (configuration not stated) ?
1740

Now the same for CC(C)c1ccc(/C(=C\C[C@H](N)C(=O)O)c2ccc(F)cc2F)cc1
150

Param item: NC(C/C=C(\c1ccccc1)c1ccc(F)cc1F)C(=O)O (configuration not stated)
6440

Same again, this time with CC(C)c1ccc(/C(=C\CC(N)C(=O)O)c2ccccc2)cc1 (configuration not stated)
400

Let us now turn to CC(C)c1ccc(/C(=C\CC(N)C(=O)O)c2ccc(-c3ccccc3)cc2)cc1 (configuration not stated)
2060

Query NC(C/C=C(\c1ccsc1)c1ccc(F)cc1F)C(=O)O (configuration not stated) next
5880

Request: CCc1ccc(/C(=C\C[C@H](N)C(=O)O)c2ccc(F)cc2F)cc1CC
283

Also need Cc1ccc(/C(=C\CC(N)C(=O)O)c2ccc(F)cc2F)cc1 (configuration not stated) , thanks.
1170

Now consider CC(C)c1ccc(/C(=C\CC(N)C(=O)O)c2cccnc2)cc1 (configuration not stated) .
5930

Next entry: CC(C)c1ccc(/C(=C\CC(N)C(=O)O)c2ccc(C(C)(C)C)cc2)cc1 (configuration not stated)
5470

Now this one: COc1ccc(/C(=C/CC(N)C(=O)O)c2ccc(C(C)C)cc2)cc1 (configuration not stated)
1160

* * *

Measured IC50 accompanies every entry in the list below.
target-or-system: Sodium- and chloride-dependent glycine transporter 2 (Rattus norvegicus, UniProt P58295)
assay-remarks: In vitro glycine reuptake inhibitory activity against glycine transporter type-2 (GlyT-2) transporter cells after incubation at 37 degrees for 30 min in presence of 50 nM [3H]glycine.

These recorded examples may help you get a feel for the data.
CC(C)c1ccc(/C(=C/CC(N)C(=O)O)c2ccc(F)cc2F)cc1 (stereo not drawn)
> 10 µM
N#Cc1ccc(/C(=C\CC(N)C(=O)O)c2ccc(F)cc2F)cc1 (stereo not drawn)
> 10 µM

Let's switch to this molecule now.
What value of IC50 has been recorded for this entry: NC(C/C=C(\c1cccnc1)c1ccc(F)cc1F)C(=O)O (stereo not drawn)
> 10 µM
